- assay: Oral bioavailability in rat at 3 mg/kg, iv and 10 mg/kg, po
- Type: ADME, organism-based
- test_parameters: in vivo
Reported bioavailability values for the following compounds.
Express your answer in %, writing the number without its unit.

A selection of reference data follows.
# smiles_notation, bioavailability, %
records = [
    ("O=c1c2sc(-c3ccc(Cl)cc3)cc2ncn1-c1ccc2c(c1)OC[C@H](CN1CCCC1)O2", 65),
    ("O=c1c2sc(-c3ccc(Cl)cc3)cc2ncn1-c1ccc2nc(CN3CCC(c4ccc(C(F)(F)F)cc4)CC3)ccc2c1", 18),
    ("CN1CCN(Cc2ccc3cc(-n4cnc5cc(-c6ccc(Cl)cc6)sc5c4=O)ccc3n2)CC1", 98),
]

Proceed to the following item.
I would be grateful if you could share the reported bioavailability for O=c1c2sc(-c3ccc(Cl)cc3)cc2ncn1-c1ccc2nc(CN3CCC(c4ccccc4)CC3)ccc2c1 .
19
